system: IGROV1 ovarian; experiment: NCI tumour cell line growth inhibition, 48 h
molecules and their reported TGI

Which measured TGI belongs to Cc1[nH]c2ccccc2c1C1Cc2ccccc2N1C(=O)/C=C/C=C/c1ccccc1 (stereo not drawn) , tested on IGROV1 ovarian?
> 100 µM

GET /values?readout=TGI&system=IGROV1 ovarian&item= COc1cccc(-c2cc(=O)c3cc(OC)c(OC)cc3[nH]2)c1
> 100 µM

---

test system: HCC-2998 colon; experiment: NCI tumour cell line growth inhibition, 48 h
Below, each of the molecules is paired with its reported TGI value.

Please provide the recorded TGI for OC(c1nc2ccccc2s1)(C(F)(F)F)C(F)(F)F , tested on HCC-2998 colon.
> 100 µM

Give HCC-2998 colon TGI for C=C1C(=O)O[C@@H]2C[C@@]3(C)CCC[C@H](C)C3=C[C@H]12
29.1 µM

Record lookup: for HCC-2998 colon, what TGI belongs to Cc1nc(Cl)nc(Cl)c1C ?
> 100 µM

Query the reported TGI for HCC-2998 colon; item: O=C1NN(c2ccc(C(=O)O)cc2)C(=O)/C1=C\c1ccc([N+](=O)[O-])o1
> 100 µM

Param readout= TGI; system= HCC-2998 colon; entry= CCCN(CCC)C(=O)C1=Cc2ccc(-c3ccc(C(=O)N4CCCC4)cc3)cc2N=C(N)C1 ; returns value.
35.8 µM

Others:
Give HCC-2998 colon TGI for OCC(CN1CCCCC1)(CN1CCCCC1)CN1CCCCC1
> 100 µM

So what TGI did O=C(O)/C=C/n1c2ccccc2c(=O)c2ccccc21 get with HCC-2998 colon?
> 100 µM

Query TGI on HCC-2998 colon for O=c1cccccc1NCCOCCNc1cccccc1=O
> 100 µM

# returns recorded TGI (system: HCC-2998 colon) for CCOP(C)(=O)C(Cc1c[nH]c2ccccc12)C(=O)O (centres undefined)
> 100 µM
